system: FADD−/− Jurkat cells; experiment: Necroptosis inhibition assay, TNF-α-induced necroptosis (CellTiter-Glo 2.0); format: cell-based, human; conditions: compound 1 μM; TNF-α 15 ng/mL
Quantity Name: Necroptosis inhibition assay (Rescue %) 1 μM
Numbers only, in %.

Solved entries:
[[record]]
molecule = "Nc1ncc(-c2cnn(C3CCN(C(=O)c4cn(C5CCN(C(=O)C6CCN(c7ccc8c(c7)C(=O)N(C7CCC(=O)NC7=O)C8=O)CC6)CC5)cn4)CC3)c2)nc1C(=O)O[C@@H](C(=O)Nc1ccc(F)cc1)c1ccccc1 (some centres unmarked)"
endpoint_value = 32.65

[[record]]
molecule = "Nc1ncc(-c2cnn(C3CCN(C(=O)COC4CCN(c5ccc6c(c5)C(=O)N(C5CCC(=O)NC5=O)C6=O)CC4)CC3)c2)nc1C(=O)O[C@@H](C(=O)Nc1ccc(F)cc1)c1ccccc1 (some centres unmarked)"
endpoint_value = 27.80

[[record]]
molecule = "Nc1ncc(-c2cnn(C3CCN(CC4CCN(CC(=O)N5CCC(Nc6cccc7c6C(=O)N(C6CCC(=O)NC6=O)C7=O)CC5)CC4)CC3)c2)nc1C(=O)OC(C(=O)Nc1ccc(F)cc1)c1ccccc1 (centres unmarked)"
endpoint_value = 43.63

[[record]]
molecule = "Nc1ncc(-c2cnn(C3CCN(CCOC4CCN(C(=O)C5CCN(c6cccc7c6C(=O)N(C6CCC(=O)NC6=O)C7=O)CC5)CC4)CC3)c2)nc1C(=O)OC(C(=O)Nc1ccc(F)cc1)c1ccccc1 (centres unmarked)"
endpoint_value = 40.99

[[record]]
molecule = "Nc1ncc(-c2cn(C3CCN(CC4CCN(C(=O)CNc5ccc6c(c5)C(=O)N(C5CCC(=O)NC5=O)C6=O)CC4)CC3)nn2)nc1C(=O)OC(C(=O)Nc1ccc(F)cc1)c1ccccc1 (centres unmarked)"
endpoint_value = 34.97

[[record]]
molecule = "Nc1nccnc1C(=O)O[C@H](C(=O)Nc1ccc(F)cc1)c1ccccc1"
endpoint_value = 6.35

[[record]]
molecule = "Nc1ncc(-c2ccc(N3CCN(CC4CCN(C(=O)C5CCN(c6cccc7c6C(=O)N(C6CCC(=O)NC6=O)C7=O)CC5)CC4)CC3)nc2)nc1C(=O)OC(C(=O)Nc1ccc(F)cc1)c1ccccc1 (centres unmarked)"
endpoint_value = 7.4

[[record]]
molecule = "Nc1ncc(-c2cnn(C3CCN(CCOCCOCCNC(=O)CNc4ccc5c(c4)C(=O)N(C4CCC(=O)NC4=O)C5=O)CC3)c2)nc1C(=O)N[C@@H](C(=O)Nc1ccc(F)cc1)c1ccccc1 (some centres unmarked)"
endpoint_value = 27.92


# return Necroptosis inhibition assay (Rescue %) 1 μM for each item in the list
1. Nc1ncc(-c2cnn(C3CCN(CC4CCN(CC(=O)NC5CCN(c6ccc7c(c6)C(=O)N(C6CCC(=O)NC6=O)C7=O)CC5)CC4)CC3)c2)nc1C(=O)OC(C(=O)Nc1ccc(F)cc1)c1ccccc1 (centres unmarked)
2. Nc1ncc(-c2cnn(C3CCN(CCOCCNc4ccc5c(c4)C(=O)N(C4CCC(=O)NC4=O)C5=O)CC3)c2)nc1C(=O)O[C@@H](C(=O)Nc1ccc(F)cc1)c1ccccc1 (some centres unmarked)
3. Nc1ncc(-c2cnn(C3CCN(C[C@H]4CC[C@H](CNC(=O)CNc5ccc6c(c5)C(=O)N(C5CCC(=O)NC5=O)C6=O)CC4)CC3)c2)nc1C(=O)O[C@@H](C(=O)Nc1ccc(F)cc1)c1ccccc1 (some centres unmarked)

Completion:
1: 60.73; 2: 24.56; 3: 61.43

# return Necroptosis inhibition assay (Rescue %) 1 μM for each item in the list
1. Nc1ncc(-c2cnn(C3CCN(C(=O)COC4CCN(C(=O)CNc5cccc6c5C(=O)N(C5CCC(=O)NC5=O)C6=O)CC4)CC3)c2)nc1C(=O)O[C@@H](C(=O)Nc1ccc(F)cc1)c1ccccc1 (some centres unmarked)
2. Nc1ncc(-c2cnn(C3CCN(CCC4CCN(C(=O)C5CN(c6ccc7nnn(C8CCC(=O)NC8=O)c(=O)c7c6)C5)CC4)CC3)c2)nc1C(=O)OC(C(=O)Nc1ccc(F)cc1)c1ccccc1 (centres unmarked)
3. Nc1ncc(-c2cnn([C@H]3CCN(CC4CCN(C(=O)COc5cccc6c5C(=O)N(C5CCC(=O)NC5=O)C6=O)CC4)C3)c2)nc1C(=O)OC(C(=O)Nc1ccc(F)cc1)c1ccccc1 (some centres unmarked)
4. Nc1ncc(C2=CCN(C(=O)CCCCCNc3ccc4c(c3)C(=O)N(C3CCC(=O)NC3=O)C4=O)CC2)cc1C(=O)O[C@@H](C(=O)Nc1ccc(F)cc1)c1ccccc1 (some centres unmarked)
5. Nc1ncc(-c2cnn(C3CCN(CCOCCNC(=O)COc4ccc5c(c4)C(=O)N(C4CCC(=O)NC4=O)C5=O)CC3)c2)nc1C(=O)O[C@@H](C(=O)Nc1ccc(F)cc1)c1ccccc1 (some centres unmarked)
6. Nc1ncc(-c2cnn(C3CCN(CCOC4CCN(C(=O)CNc5cccc6c5C(=O)N(C5CCC(=O)NC5=O)C6=O)CC4)CC3)c2)nc1C(=O)OC(C(=O)Nc1ccc(F)cc1)c1ccccc1 (centres unmarked)

Completion:
1. 34.73
2. 87.96
3. 44.29
4. 10.02
5. 31.24
6. 45.5

# return Necroptosis inhibition assay (Rescue %) 1 μM for each item in the list
1. Nc1ncc(-c2cnn(C3CCN(CCCCCCCCCCNC(=O)C4CN(c5ccc6c(c5)C(=O)N(C5CCC(=O)NC5=O)C6=O)C4)CC3)c2)nc1C(=O)O[C@@H](C(=O)Nc1ccc(F)cc1)c1ccccc1 (some centres unmarked)
2. Nc1ncc(-c2cnn(C3CCN(CCCCCCCCCCNC(=O)C4CCN(c5ccc6c(c5)C(=O)N(C5CCC(=O)NC5=O)C6=O)CC4)CC3)c2)nc1C(=O)O[C@@H](C(=O)Nc1ccc(F)cc1)c1ccccc1 (some centres unmarked)
3. Nc1ncc(-c2cnn(C3CCN(CC4CCN(C(=O)C5CCN(c6ccc7c(c6)C(=O)N(C6CCC(=O)NC6=O)C7=O)CC5)CC4)CC3)c2)nc1C(=O)N[C@@H](C(=O)Nc1ccc(F)cc1)c1ccccc1 (some centres unmarked)

Completion:
1. 33.57
2. 37.7
3. 7.5
